Taken from patent US5280015A.

target: A2 adenosine receptors (Bos taurus, UniProt E1BKU0); assay: Competitive binding assay in bovine brain using 125I-PAPA-APEC (striatal membranes); design: Bovine striatal membranes; from tissue; host or cells: bovine (calf) striatal membranes; conditions: bovine striatum; 11, 12 and 14: apparent Ki; read-out: Ki, inhibition of binding of 125I-PAPA-APEC at A2-receptors
Sequence (E1BKU0 1-401): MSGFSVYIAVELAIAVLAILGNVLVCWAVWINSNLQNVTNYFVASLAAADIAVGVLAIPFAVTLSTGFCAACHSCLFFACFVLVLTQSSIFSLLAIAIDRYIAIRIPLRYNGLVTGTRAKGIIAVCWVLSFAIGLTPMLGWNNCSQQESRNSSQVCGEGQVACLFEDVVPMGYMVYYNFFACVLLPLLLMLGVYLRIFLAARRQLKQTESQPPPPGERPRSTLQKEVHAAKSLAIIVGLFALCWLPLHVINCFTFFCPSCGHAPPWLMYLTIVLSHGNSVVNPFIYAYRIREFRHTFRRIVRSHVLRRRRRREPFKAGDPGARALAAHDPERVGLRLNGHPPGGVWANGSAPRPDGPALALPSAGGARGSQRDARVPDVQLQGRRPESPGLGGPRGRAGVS
pKi: −log10 of the molar value. Structures can show the parent of a compound that is named as a salt.
measured endpoint: pKi

Worked examples follow.
molecule=CCNC(=O)[C@H]1O[C@@H](n2cnc3c(N)nc(NCCc4ccc(CCC(=O)NCCNC(=O)CCCC[C@@H]5SC[C@@H]6NC(=O)N[C@@H]65)cc4)nc32)[C@H](O)[C@@H]1O numeric_value=7.84
molecule=CCNC(=O)[C@H]1O[C@@H](n2cnc3c(N)nc(NCCc4ccc(CCC(=O)NCCNC(=O)Cc5ccc(N)cc5)cc4)nc32)[C@H](O)[C@@H]1O numeric_value=7.37
molecule=CCNC(=O)[C@H]1O[C@@H](n2cnc3c(N)nc(NCCc4ccc(CCC(=O)NCCNC(=O)c5cccc(N)c5)cc4)nc32)[C@H](O)[C@@H]1O numeric_value=7.36

[A] CCNC(=O)[C@H]1O[C@@H](n2cnc3c(N)nc(NCCc4ccc(CCC(=O)NCCNC(=S)Nc5ccc(S(=O)(=O)O)cc5)cc4)nc32)[C@H](O)[C@@H]1O [Compound 13, sodium salt]
[B] CCNC(=O)[C@H]1O[C@@H](n2cnc3c(N)nc(NCCc4ccc(CCC(=O)NCCNc5ccc([N+](=O)[O-])c6nonc56)cc4)nc32)[C@H](O)[C@@H]1O
Challenge: Which value of pKi is greater, the one for A or the one for B ? Let me know the label of the one you choose.
Response given: A

---

target: A1-adenosine receptors (Rattus norvegicus); construct: rat cerebral cortex membranes; from tissue; host or cells: rat cerebral cortex membranes; assay: Competitive binding assay at A1-adenosine receptors, rat cerebral cortex membranes ([3H]PIA or [3H]CHA); settings: read-out: Ki, inhibition of binding at A1-receptors using [3H]N6-cyclohexyladenosine; rat; [3H]N6-cyclohexyladenosine (footnote c)
Sequence (P25099 whole entry): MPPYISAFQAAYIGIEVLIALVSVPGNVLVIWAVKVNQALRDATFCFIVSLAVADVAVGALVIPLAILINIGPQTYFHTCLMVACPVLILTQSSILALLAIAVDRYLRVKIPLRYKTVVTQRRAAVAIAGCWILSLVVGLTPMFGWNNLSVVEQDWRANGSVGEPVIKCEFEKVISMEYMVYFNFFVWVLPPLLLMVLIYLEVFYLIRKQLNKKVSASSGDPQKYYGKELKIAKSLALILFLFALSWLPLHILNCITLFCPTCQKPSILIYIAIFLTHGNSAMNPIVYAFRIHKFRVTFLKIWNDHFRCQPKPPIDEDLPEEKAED
measured endpoint: pKi
pKi here is simply -log10 of the concentration when that concentration is written in mol/L.

Challenge: Check the records and state pKi for "CCNC(=O)[C@H]1O[C@@H](n2cnc3c(N)nc(NCCc4ccc(CCC(=O)NCCNC(=S)NC5CC(C)(C)N([O])C(C)(C)C5)cc4)nc32)[C@H](O)[C@@H]1O"
Response given: 6.75

---

molecular target: A1-adenosine receptors (Rattus norvegicus); construct: rat cerebral cortex membranes; from tissue; host or cells: rat cerebral cortex membranes; assay: Competitive binding assay at A1-adenosine receptors, rat cerebral cortex membranes ([3H]PIA or [3H]CHA); conditions: rat; [3H]N6-cyclohexyladenosine (footnote c); read-out: Ki, inhibition of binding at A1-receptors using [3H]N6-cyclohexyladenosine
measured endpoint: Ki (nM)

molecule="CCNC(=O)[C@H]1O[C@@H](n2cnc3c(N)nc(NCCc4ccc(CCC(=O)NCCNC(=O)CCc5ccc(O)cc5)cc4)nc32)[C@H](O)[C@@H]1O [Compound 4]" tested_target="A1-adenosine receptors (Rattus norvegicus)" numeric_value=950

[A] CCNC(=O)[C@H]1O[C@@H](n2cnc3c(N)nc(NCCc4ccc(CCC(=O)NCCNC(=O)c5cccc(NC(=O)OCc6ccccc6)c5)cc4)nc32)[C@H](O)[C@@H]1O [Compound 9]
[B] CCNC(=O)[C@H]1O[C@@H](n2cnc3c(N)nc(NCCc4ccc(CCC(=O)OC)cc4)nc32)[C@H](O)[C@@H]1O [Compound 2]
[C] CCNC(=O)[C@H]1O[C@@H](n2cnc3c(N)nc(NCCc4ccc(CCC(=O)NCCNC(=O)Cc5cccs5)cc4)nc32)[C@H](O)[C@@H]1O [Compound 5]
Challenge: Order each entry by recorded Ki, climbing from the minimum. A complete answer lists every label in the requested sequence.
Response given: A, C, B
